For Tyk2 (Homo sapiens, UniProt P29597), measured IC50 is reported for the entries below.
value-kind: IC50 (nM)

Previously resolved entries follow.
[[record]]
compound = "CC(=O)Nc1nn([C@]2(CC#N)C[C@@H](C#N)C2)cc1-c1nc(-c2cnn(C)c2)cn2nccc12"
value_kind = "IC50"
endpoint_unit = "nM"
obs_value = 139

[[record]]
compound = "Cn1cc(-c2cn3nccc3c(-c3cn([C@]4(CC#N)C[C@H](C#N)C4)c4ncncc34)n2)cn1 [Example 49]"
value_kind = "IC50"
endpoint_unit = "nM"
obs_value = 118


(a) CN(C)c1nn([C@]2(CC#N)C[C@@H](C#N)C2)cc1-c1nc(-c2cnn(C)c2)cn2nccc12
(b) Cn1cc(-c2cn3ncnc3c(-c3cn([C@]4(CC#N)C[C@@H](C#N)C4)nc3N)n2)cn1
Task: Looking at a and b , which one comes out lower in IC50 terms? Bench note: the answer is the label of the chosen record.
Result: a

(I) Cn1cc(-c2cc(-c3cn([C@]4(CC#N)C[C@@H](C#N)C4)nc3N)c3ccnn3c2)cn1
(II) Cn1cc(-c2cn3nccc3c(-c3cn([C@]4(CC#N)C[C@H](C#N)C4)c4ncncc34)n2)cn1 [Example 50]
Task: Looking at I and II , which one comes out lower in IC50 terms? Bench note: the answer is the label of the chosen record.
Result: II

Ref: patent US12404275B2
